Study target: Recombinant human GR (Homo sapiens, UniProt P04150)
Construct: purchased Invitrogen P2816
Experiment: GR competitor assay by fluorescence polarization (binding activity to glucocorticoid receptor)
Stated conditions: 20 μM test compound solution, 25 μL per well plus 12.5 μL each of 4×GS1 and 4×GR solution; Fluormone GS1 ligand; positive control 2 mM dexamethasone; read-out: GR Binding ratio (%)
Provide the recorded inhibition at 10 µM for the entries that follow.
Answer format: numeric, % implied, no suffix.

Field request: inhibition at 10 µM | item: COc1cc(OC(=O)c2cccnc2C)ccc1-c1ccc2c(c1COc1cc(F)ccc1C)N(C)C(=O)C(C)(C)N2
100

Here is the next compound: COc1ccc(F)cc1-c1ccc2c(c1COC(=O)c1ccccc1)N(C)C(=O)C(C)(C)N2
100

Here is the next compound: COc1cc(OC(=O)c2ccccc2SC)ccc1-c1ccc2c(c1COc1cc(F)ccc1C)N(C)C(=O)C(C)(C)N2
100

Here is the next compound: COc1cc(F)ccc1-c1ccc2c(c1COC(=O)c1ccc(C)s1)N(C)C(=O)C(C)(C)N2
99

* * *

Study target: Recombinant human GR (Homo sapiens)
Construct: purchased Invitrogen P2816
Sequence (P04150 1-777): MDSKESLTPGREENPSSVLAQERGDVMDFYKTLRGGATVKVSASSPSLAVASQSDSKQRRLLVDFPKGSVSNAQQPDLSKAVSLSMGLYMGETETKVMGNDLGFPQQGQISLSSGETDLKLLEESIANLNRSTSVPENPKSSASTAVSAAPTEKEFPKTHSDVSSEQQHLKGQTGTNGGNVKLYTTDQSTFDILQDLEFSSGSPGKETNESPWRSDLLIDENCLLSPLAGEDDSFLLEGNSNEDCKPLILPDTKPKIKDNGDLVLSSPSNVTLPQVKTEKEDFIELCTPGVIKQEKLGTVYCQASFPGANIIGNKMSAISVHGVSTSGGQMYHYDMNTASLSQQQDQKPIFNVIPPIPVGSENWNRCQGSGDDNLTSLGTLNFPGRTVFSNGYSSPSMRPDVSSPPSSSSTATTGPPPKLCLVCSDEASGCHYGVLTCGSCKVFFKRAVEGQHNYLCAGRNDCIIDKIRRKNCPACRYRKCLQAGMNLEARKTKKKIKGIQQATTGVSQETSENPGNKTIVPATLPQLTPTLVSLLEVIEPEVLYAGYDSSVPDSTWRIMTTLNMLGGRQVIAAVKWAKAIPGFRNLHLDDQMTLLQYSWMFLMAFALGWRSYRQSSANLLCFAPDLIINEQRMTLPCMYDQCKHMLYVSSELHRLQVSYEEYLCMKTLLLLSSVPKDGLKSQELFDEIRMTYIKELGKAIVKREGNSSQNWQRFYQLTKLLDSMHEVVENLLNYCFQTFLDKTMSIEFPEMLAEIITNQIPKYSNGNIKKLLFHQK
Experiment: GR competitor assay by fluorescence polarization (binding activity to glucocorticoid receptor)
Stated conditions: 20 μM test compound solution, 25 μL per well plus 12.5 μL each of 4×GS1 and 4×GR solution; Fluormone GS1 ligand; positive control 2 mM dexamethasone; read-out: GR Binding ratio (%)
Readout type: inhibition at 10 µM (%)
Answer format: numeric, % implied, no suffix.

Field request: inhibition at 10 µM | item: COc1cc(N)ccc1-c1ccc2c(c1COc1cc(F)ccc1C)N(C)C(=O)C(C)(C)N2
100

Here is the next compound: COc1cc(OC(=O)c2ccccc2C)ccc1-c1ccc2c(c1CNc1cc(F)ccc1C)N(C)C(=O)C(C)(C)N2
100

Here is the next compound: COc1cc(O)ccc1-c1ccc2c(c1COc1cc(F)ccc1C)N(C)C(=O)C(C)(C)N2
100

Here is the next compound: COc1cc(F)ccc1-c1ccc2c(c1COc1cc(Cl)ccc1C)N(C)C(=O)C(C)(C)N2
100

Here is the next compound: COc1ccccc1NCc1c(-c2ccc(OC(=O)c3cscn3)cc2OC)ccc2c1N(C)C(=O)C(C)(C)N2
94

Here is the next compound: COc1cc(OC(=O)c2cccc(C(C)=O)c2)ccc1-c1ccc2c(c1COc1cc(F)ccc1C)N(C)C(=O)C(C)(C)N2
100

Here is the next compound: COc1ccc(Cl)cc1-c1ccc2c(c1CNc1ccccc1C(C)C)N(C)C(=O)C(C)(C)N2
100

Here is the next compound: COc1cc(OC(=O)c2ccccc2C)ccc1-c1ccc2c(c1COc1cc(F)ccc1C)N(C)C(=O)C(C)(C)N2
100

Here is the next compound: COc1cc(OC(=O)c2cocn2)ccc1-c1ccc2c(c1COc1cc(F)ccc1C)N(C)C(=O)C(C)(C)N2
100

Here is the next compound: CSc1ccccc1-c1ccc2c(c1COc1cc(F)ccc1C)N(C)C(=O)C(C)(C)N2
100

Here is the next compound: COC(=O)Oc1ccc(-c2ccc3c(c2COc2cc(F)ccc2C)N(C)C(=O)C(C)(C)N3)c(OC)c1
93

Here is the next compound: COc1ccc(F)cc1-c1ccc2c(c1COC(=O)c1ccc(C)cc1)NC(=O)C(C)(C)N2
99

Here is the next compound: COc1cc(F)ccc1-c1ccc2c(c1COC(=O)c1ccc(Br)s1)N(C)C(=O)C(C)(C)N2
100

Here is the next compound: COc1cc(OC(=O)c2ccccc2F)ccc1-c1ccc2c(c1COC(=O)c1ccc(C)s1)N(C)C(=O)C(C)(C)N2
100

Here is the next compound: C=CC(=O)Oc1ccc(-c2ccc3c(c2COc2cc(F)ccc2C)N(C)C(=O)C(C)(C)N3)c(OC)c1
100

Here is the next compound: COc1cc(OC(=O)c2cccnc2OC)ccc1-c1ccc2c(c1COc1cc(F)ccc1C)N(C)C(=O)C(C)(C)N2
100

Here is the next compound: COc1ccc(C(=O)Oc2ccc(-c3ccc4c(c3COc3cc(F)ccc3C)N(C)C(=O)C(C)(C)N4)c(OC)c2)cc1
100

Here is the next compound: COc1cc(F)ccc1-c1ccc2c(c1COc1cc([N+](=O)[O-])ccc1C)N(C)C(=O)C(C)(C)N2
100

Here is the next compound: COc1ccc(OC(=O)c2ccccc2)cc1-c1ccc2c(c1COc1cc(F)ccc1C)N(C)C(=O)C(C)(C)N2
89

Here is the next compound: COc1cc(NC(=O)Oc2ccccc2)ccc1-c1ccc2c(c1COc1cc(F)ccc1C)N(C)C(=O)C(C)(C)N2
93

Here is the next compound: COc1cc(F)ccc1-c1ccc2c(c1COc1cc(F)ccc1C)N(C)C(=O)C(C)(C)N2
100

Here is the next compound: COc1ccccc1NCc1c(-c2ccc(F)cc2OC)ccc2c1N(C)C(=O)C(C)(C)N2
100

Here is the next compound: COc1cc(OC(=O)c2ccccc2OC(C)=O)ccc1-c1ccc2c(c1COc1cc(F)ccc1C)N(C)C(=O)C(C)(C)N2
98

Here is the next compound: COC(=O)c1cccc(C(=O)Oc2ccc(-c3ccc4c(c3COc3cc(F)ccc3C)N(C)C(=O)C(C)(C)N4)c(OC)c2)c1
100

Here is the next compound: COc1ccccc1-c1ccc2c(c1COc1cc(F)ccc1C)N(C)C(=O)C(C)(C)N2
98

Here is the next compound: COc1cc(OC(=O)Oc2ccccc2)ccc1-c1ccc2c(c1COc1cc(F)ccc1C)N(C)C(=O)C(C)(C)N2
88

Here is the next compound: COc1cc(OC(=O)Nc2cccnc2)ccc1-c1ccc2c(c1COc1cc(F)ccc1C)N(C)C(=O)C(C)(C)N2
91

Here is the next compound: COc1cccc(F)c1-c1ccc2c(c1COc1cc(F)ccc1C)N(C)C(=O)C(C)(C)N2
98
